# Test system: guinea pig tracheal spiral preparations
# protocolText: Bronchodilation in vitro; guinea pig tracheal spiral preparations
# Type: cell-based
# conditionSet: Cavia porcellus; relaxation of guinea pig tracheal spirals, relative to total relaxation with 10^-3 M isoprenaline; read-out: I.A (efficacy, Intrinsic Activity)
Tick y if Emax is 90% or greater. Tick n if Emax is less than 90%.

Please review the following examples before continuing.
>  <compound>
CC1(C)C=C(N2CCCC2=O)c2cc(C(F)(F)C(F)(F)F)ccc2O1

>  <labelClass>
y

$$$$
>  <compound>
CC1(C)Oc2ccc(C(F)(F)C(F)(F)F)cc2[C@@H](N2CCCCC2=O)[C@@H]1O [Example 6]

>  <labelClass>
y

$$$$

Query :: Exam item: decide whether the reported Emax for CC1(C)C=C(n2ccccc2=O)c2cc(C(F)(F)C(F)(F)F)ccc2O1 is at least 90%.
Result :: n

Query :: Exam item: decide whether the reported Emax for CC1(C)Oc2ccc(C(F)(F)C(F)(F)F)cc2[C@@H](n2ccccc2=O)[C@@H]1O (relative stereo) is at least 90%.
Result :: y
